- target_under_test: Thyrotropin receptor (Homo sapiens) (UniProt P16473)
- Sequence (P16473 whole entry, looked up): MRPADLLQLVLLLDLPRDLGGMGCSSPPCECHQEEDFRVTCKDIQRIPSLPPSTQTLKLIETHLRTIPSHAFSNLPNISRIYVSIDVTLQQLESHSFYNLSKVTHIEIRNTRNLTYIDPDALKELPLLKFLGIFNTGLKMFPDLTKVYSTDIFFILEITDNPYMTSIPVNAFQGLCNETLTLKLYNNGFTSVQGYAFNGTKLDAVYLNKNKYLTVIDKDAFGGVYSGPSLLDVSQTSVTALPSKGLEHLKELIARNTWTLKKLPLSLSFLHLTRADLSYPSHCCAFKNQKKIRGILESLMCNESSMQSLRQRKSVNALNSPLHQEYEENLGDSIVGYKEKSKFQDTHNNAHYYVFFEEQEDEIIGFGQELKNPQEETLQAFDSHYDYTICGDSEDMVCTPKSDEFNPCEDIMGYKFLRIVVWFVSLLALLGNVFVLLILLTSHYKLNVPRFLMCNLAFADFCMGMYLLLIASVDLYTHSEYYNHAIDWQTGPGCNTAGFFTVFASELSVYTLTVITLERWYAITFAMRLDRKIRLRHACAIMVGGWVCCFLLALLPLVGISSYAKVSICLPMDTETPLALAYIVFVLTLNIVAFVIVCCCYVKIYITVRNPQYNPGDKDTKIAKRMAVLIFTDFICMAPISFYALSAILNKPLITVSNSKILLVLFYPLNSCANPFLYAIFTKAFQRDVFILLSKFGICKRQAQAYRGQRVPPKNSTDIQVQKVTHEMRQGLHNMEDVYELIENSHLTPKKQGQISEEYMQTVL
- test_details: qHTS assay to identify small molecule agonists of the thyroid stimulating hormone receptor (TSHR) signaling pathway (AID 1224843); also: nearly all actives have a fitted effect of over 45% in size
- measurement_context: TSHR-HEK293 cells, cAMP HTRF, agonist mode, 30 min; series mostly up to 92.4 µM
Inconclusive results are not listed. Activity calls are given as the source filed them. Calls follow the shape of the full dose curve.
Select the correct class. Options are active, inactive and nothing else.

CC(C)(C)NCC(O)c1cc(Cl)c(N)c(Cl)c1 (centres undefined)	active

Next compound, please.
Q: Hi, sorry to bother you, what did the test record for Cc1cc(C)nc(Nc2ccccc2)n1 ?
Ans: inactive

* * *

- target_under_test: Progesterone receptor (Homo sapiens)
- test_details: qHTS assay to identify small molecule antagonists of the progesterone receptor (PR) signaling pathway (AID 1346795)
- measurement_context: PR-UAS-bla HEK293T, beta-lactamase FRET ratio, 16 h; series mostly up to 92.4 µM
- Source text: National Center for Advancing Translational Sciences [NCATS] NIH Chemical Genomics Center [NCGC] U.S. Environmental Protection Agency [EPA] National Institutes of Environmental Health Sciences [NIEHS] National Toxicology Program [NTP] U.S. Food and Drug Administration [FDA] Progesterone receptor (PR), a nuclear hormone receptor, plays an important role in development, metabolic homeostasis and reproduction. […]
Inconclusive results are not listed. Calls of active or inactive are those of the source. The call rests on the fitted dose curve; in most records, active means well fitted inhibition curve with a large enough effect in the signal ratio in the repeat runs (not every such curve was filed as active); inconclusive means weak or mixed curves; inactive means flat fitted curve, though single readings scatter; the % refers to the signal ratio.
Select the correct class. Options are active, inactive and nothing else.

O=[N+]([O-])c1cccc2c([N+](=O)[O-])cccc12	inactive

Q: Hi, sorry to bother you, what did the test record for ClCC(Cl)(Cl)Cl ?
Ans: inactive

Q: Hi, sorry to bother you, what did the test record for CC(=O)Nc1cc([As](=O)(O)O)ccc1O ?
Ans: inactive

Q: Hi, sorry to bother you, what did the test record for O=C1OC(=O)C2C1C1(Cl)C(Cl)=C(Cl)C2(Cl)C1(Cl)Cl (stereo not drawn) ?
Ans: inactive

Where do these numbers come from? They come from PubChem BioAssay (Tox21).
